molecular target: human HDAC7 enzyme (Homo sapiens, UniProt Q8WUI4); construct: purchased Reaction Biology Corp; assay: Human HDAC7 enzyme assay (Class IIa HDACs); type: biochemical; conditions: Table 8; recombinant human HDAC7
Sequence (Q8WUI4 whole entry): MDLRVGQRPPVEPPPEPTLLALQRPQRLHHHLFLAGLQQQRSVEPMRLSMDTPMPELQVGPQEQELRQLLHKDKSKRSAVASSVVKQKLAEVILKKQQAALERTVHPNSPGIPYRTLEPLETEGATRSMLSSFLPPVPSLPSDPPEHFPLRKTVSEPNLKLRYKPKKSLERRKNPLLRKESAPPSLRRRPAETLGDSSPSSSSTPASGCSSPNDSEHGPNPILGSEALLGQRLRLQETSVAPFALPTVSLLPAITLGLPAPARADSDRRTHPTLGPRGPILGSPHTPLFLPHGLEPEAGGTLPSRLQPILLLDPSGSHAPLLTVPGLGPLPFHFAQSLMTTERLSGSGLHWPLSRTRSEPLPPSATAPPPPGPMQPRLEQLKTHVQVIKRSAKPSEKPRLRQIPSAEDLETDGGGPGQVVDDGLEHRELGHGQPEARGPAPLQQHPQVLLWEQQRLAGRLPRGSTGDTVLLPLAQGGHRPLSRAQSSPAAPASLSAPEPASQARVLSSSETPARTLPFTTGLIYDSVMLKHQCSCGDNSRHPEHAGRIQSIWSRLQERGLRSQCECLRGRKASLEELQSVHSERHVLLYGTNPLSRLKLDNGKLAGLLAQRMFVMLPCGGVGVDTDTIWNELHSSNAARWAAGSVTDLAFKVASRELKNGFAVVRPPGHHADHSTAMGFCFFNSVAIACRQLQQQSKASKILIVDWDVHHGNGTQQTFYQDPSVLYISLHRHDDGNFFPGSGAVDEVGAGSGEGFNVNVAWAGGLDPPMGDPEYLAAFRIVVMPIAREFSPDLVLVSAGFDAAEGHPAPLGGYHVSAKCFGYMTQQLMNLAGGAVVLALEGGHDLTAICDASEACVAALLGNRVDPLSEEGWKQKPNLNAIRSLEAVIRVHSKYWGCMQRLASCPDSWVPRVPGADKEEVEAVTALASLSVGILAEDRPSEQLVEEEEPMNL
experimental_readout: IC50

Example entries begin here.
Request: Lab request: please report IC50 under test system human HDAC7 enzyme (Homo sapiens, UniProt Q8WUI4) for COc1cccc(-c2cc(CNC(=O)Nc3cccc4cccnc34)ccc2C(=O)NO)c1
Result: > 10000 nM

Request: API: value(readout= IC50, system= human HDAC7 enzyme (Homo sapiens, UniProt Q8WUI4), query= Nc1ccc(-c2cc(CNC(=O)Nc3cccc4cccnc34)ccc2C(=O)NO)cc1 )
Result: > 10000 nM

Request: Which measured IC50 belongs to O=C(NCc1ccc(C(=O)NO)c(Br)c1)Nc1cccc2cccnc12 [Example 1, reference compound] , tested on human HDAC7 enzyme (Homo sapiens, UniProt Q8WUI4)?
Result: > 10000 nM

Request: Please provide the recorded IC50 for O=C(NO)c1ccc(Nc2ccc(-c3ccccc3)cc2)cc1-c1ccccc1 , tested on human HDAC7 enzyme (Homo sapiens, UniProt Q8WUI4).
Result: > 10000 nM

Request: Provide the documented IC50 with human HDAC7 enzyme (Homo sapiens, UniProt Q8WUI4) as the system for Cc1nc2ccccc2c(=O)n1Cc1ccc(C(=O)N(C)O)c(-c2ccccc2)c1
Result: ≥ 10000 nM

Please find the next compound below.
Request: Give the reported IC50 for O=C(NCc1ccc(C(=O)NO)c(-c2cn[nH]c2)c1)Nc1cccc2cccnc12 (system: human HDAC7 enzyme (Homo sapiens, UniProt Q8WUI4)).
Result: > 10000 nM
